This collection of values is drawn from patent US11180474B2.

# experimental system: human TLR9 (Homo sapiens)
# Sequence (Q9NR96 26-1032): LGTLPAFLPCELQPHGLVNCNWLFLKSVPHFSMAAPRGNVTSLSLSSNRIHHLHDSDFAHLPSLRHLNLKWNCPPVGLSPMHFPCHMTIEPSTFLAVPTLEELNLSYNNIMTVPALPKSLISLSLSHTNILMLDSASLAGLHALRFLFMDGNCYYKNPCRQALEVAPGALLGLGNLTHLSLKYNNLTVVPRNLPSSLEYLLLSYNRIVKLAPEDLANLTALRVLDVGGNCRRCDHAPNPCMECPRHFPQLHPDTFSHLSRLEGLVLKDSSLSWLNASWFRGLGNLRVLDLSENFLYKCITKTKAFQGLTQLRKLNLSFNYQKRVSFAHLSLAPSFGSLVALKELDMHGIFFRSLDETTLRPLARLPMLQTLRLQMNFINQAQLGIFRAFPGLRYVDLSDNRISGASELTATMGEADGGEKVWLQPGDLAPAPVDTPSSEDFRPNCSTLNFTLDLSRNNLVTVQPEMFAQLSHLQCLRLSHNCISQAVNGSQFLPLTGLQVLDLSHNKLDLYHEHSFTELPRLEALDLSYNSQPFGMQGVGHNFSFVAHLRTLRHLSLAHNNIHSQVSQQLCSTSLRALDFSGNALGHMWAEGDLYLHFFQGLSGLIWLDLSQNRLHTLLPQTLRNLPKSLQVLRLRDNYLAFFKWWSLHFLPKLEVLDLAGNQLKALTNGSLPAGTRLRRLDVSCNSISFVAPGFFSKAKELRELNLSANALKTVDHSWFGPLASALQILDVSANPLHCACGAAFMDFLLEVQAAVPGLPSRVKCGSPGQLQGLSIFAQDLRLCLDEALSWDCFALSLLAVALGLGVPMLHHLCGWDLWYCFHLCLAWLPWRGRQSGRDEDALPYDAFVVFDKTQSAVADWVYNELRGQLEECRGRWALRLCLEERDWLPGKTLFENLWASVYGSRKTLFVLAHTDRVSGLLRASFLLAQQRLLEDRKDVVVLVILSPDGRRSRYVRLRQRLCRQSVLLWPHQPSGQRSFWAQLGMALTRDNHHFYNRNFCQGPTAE
# experimental protocol: TLR9 inhibition reporter assay (HEK-Blue cells, SEAP reporter, ODN2006 stimulation)
# applied conditions: HEK-Blue cells overexpressing human TLR9, ODN2006 5 nM
# Excerpt: TLR7/8/9 Inhibition Reporter Assays HEK-Blue™-cells (Invivogen) overexpressing human TLR7, TLR8 or TLR9 receptors were used for screening inhibitors of these receptors using an inducible SEAP (secreted embryonic alkaline phosphatase) reporter gene under the control of the IFN-β minimal promoter fused to five NF-κB and AP-1-binding sites. […]
Counter-ions that a name gives are not always drawn.
attribute measured: IC50 (nM)

Use the examples below as a reference point.
* CCc1c(-c2ccc(OC)c(OC)c2)[nH]c2ccc(C3CCN(C(=O)CN(C)C)CC3)cc12 [Example 181] | 2270
* COc1ccc(-c2[nH]c3ccc(C4CCN(C5CCN(C6CCOCC6)CC5)CC4)cc3c2C)cc1OC [Example 26] | 318
* CCc1c(-c2ccc(OC)c(OC)c2)[nH]c2cc(C)c(C3CCNCC3)cc12 [Example 396, HCl] | 3430

a = COc1ccc(-c2[nH]c3ccc(C4CCN(C(=O)C[C@H](C)N)CC4)cc3c2C(C)C)cc1OC [Example 253]
b = COc1ccc(-c2[nH]c3ccc(C4CCN(C(=O)C[C@H](C)O)CC4)cc3c2CC(F)(F)F)cc1OC [Example 352]
[Q] // compare measured IC50 between a and b ; output the lower one When you have decided, please share the label of that item.
[A] a

a = CCCC[C@@H](CO)NCC(=O)N1CCC(c2ccc3[nH]c(-c4ccc(OC)c(OC)c4)c(CC)c3c2)CC1 [Example 174]
b = COc1ccc(-c2[nH]c3ccc(C4CCN(C(=O)[C@@H]5CCCN5C(C)=O)CC4)cc3c2CC(F)(F)F)cc1OC [Example 336]
[Q] Of the two listed items, a and b , which carries the larger IC50 figure? Output the label that corresponds to your choice.
[A] b
(b: 27800 nM, a: 2570 nM)

====

# experimental system: human TLR8 (Homo sapiens, UniProt Q9NR97)
# Sequence (Q9NR97 27-1041): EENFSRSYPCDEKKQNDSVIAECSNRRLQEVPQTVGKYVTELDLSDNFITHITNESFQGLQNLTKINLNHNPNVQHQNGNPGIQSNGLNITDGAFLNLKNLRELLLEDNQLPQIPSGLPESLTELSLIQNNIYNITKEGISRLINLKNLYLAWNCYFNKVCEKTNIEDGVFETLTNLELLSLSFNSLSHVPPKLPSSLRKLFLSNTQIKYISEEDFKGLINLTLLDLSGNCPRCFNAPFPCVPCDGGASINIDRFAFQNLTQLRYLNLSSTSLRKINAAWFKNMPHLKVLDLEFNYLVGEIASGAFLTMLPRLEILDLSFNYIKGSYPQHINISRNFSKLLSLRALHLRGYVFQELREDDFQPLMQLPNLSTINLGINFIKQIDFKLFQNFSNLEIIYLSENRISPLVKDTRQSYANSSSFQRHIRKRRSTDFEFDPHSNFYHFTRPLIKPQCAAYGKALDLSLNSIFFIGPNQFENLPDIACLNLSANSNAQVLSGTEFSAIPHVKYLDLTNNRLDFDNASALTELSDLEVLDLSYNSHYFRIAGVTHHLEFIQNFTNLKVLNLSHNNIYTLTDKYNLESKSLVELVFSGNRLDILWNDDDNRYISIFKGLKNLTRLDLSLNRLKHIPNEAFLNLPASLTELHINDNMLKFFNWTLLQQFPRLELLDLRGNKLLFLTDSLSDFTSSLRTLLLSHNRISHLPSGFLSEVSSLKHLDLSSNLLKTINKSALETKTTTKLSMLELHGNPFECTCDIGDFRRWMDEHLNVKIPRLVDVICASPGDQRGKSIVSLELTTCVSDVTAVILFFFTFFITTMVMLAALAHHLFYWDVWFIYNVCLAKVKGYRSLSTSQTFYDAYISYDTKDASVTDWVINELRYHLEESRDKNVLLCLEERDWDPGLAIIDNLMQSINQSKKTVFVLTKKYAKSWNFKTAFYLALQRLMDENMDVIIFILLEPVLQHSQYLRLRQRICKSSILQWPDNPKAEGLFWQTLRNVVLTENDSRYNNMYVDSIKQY
# experimental protocol: TLR8 inhibition reporter assay (HEK-Blue cells, SEAP reporter, R848 stimulation)
# applied conditions: HEK-Blue cells overexpressing human TLR8, R848 15.9 μM
attribute measured: IC50 (nM)

* COc1ccc(-c2[nH]c3ccc(C4CCN(C5CCCN(C)CC5)CC4)cc3c2C)cc1OC (centres unmarked) | 352
* COc1ccc(-c2[nH]c3ccc(C4CCN(C5CCN(CC6CCCC6)CC5)CC4)cc3c2C)cc1OC | 41400
* COc1ccc(-c2[nH]c3ccc(C4CCN(C(=O)CN5CCC(N6CCN(C)CC6)CC5)CC4)cc3c2C(C)C)cc1OC | 13
* COc1ccc(-c2[nH]c3ccc(C4CCN(CC(=O)NCCCN(C)C)CC4)cc3c2CC(F)(F)F)cc1OC | 62

I = CCc1c(-c2ccc(OC)c(OC)c2)[nH]c2ccc(C3CCN(C4CCN(CC(C)C)CC4)CC3)cc12
II = COc1ccc(-c2[nH]c3ccc(C4CCN(C(=O)CCCNC(C)=O)CC4)cc3c2CC(F)(F)F)cc1OC
III = CCN1CCCC(N2CCC(c3ccc4[nH]c(-c5ccc(OC)c(OC)c5)c(C)c4c3)CC2)C1 (centres unmarked)
IV = COc1ccc(-c2[nH]c3ccc(C4CCN(C(=O)CN5CCC(N6CCCCC6)CC5)CC4)cc3c2C(C)C)cc1OC
[Q] Sort low-to-high on IC50, please. Present the labels in the sequence the task asks for.
[A] IV, I, II, III
(IV: 25 nM, I: 150 nM, II: 371 nM, III: 27900 nM)
